This collection of values is drawn from patent US20090253709A1.

Consider the following compounds and their measured melting point readings.
Endpoint name: melting point (°C)

• O=C(CN1CCCCC1)Nc1ccc2c(c1)C(=O)c1cc(NC(=O)CN3CCCCC3)ccc1C2=O = 243
• CCCNCC(=O)Nc1ccc2c(c1)C(=O)c1cc(NC(=O)CNCCC)ccc1C2=O = 143
• O=C(Cc1ccccc1)Nc1ccc2c(c1)C(=O)c1cc(NC(=O)Cc3ccccc3)ccc1C2=O = 224
• O=C(CCCl)Nc1ccc2c(c1)C(=O)c1cc(NC(=O)CCCl)ccc1C2=O = 281
• CCNCCC(=O)Nc1ccc2c(c1)C(=O)c1cc(NC(=O)CCNCC)ccc1C2=O = 181
• O=C(CCCCl)Nc1ccc2c(c1)C(=O)c1cc(NC(=O)CCCCl)ccc1C2=O = 234
• O=C1c2ccc(NC(=O)C3CC3)cc2C(=O)c2cc(NC(=O)C3CC3)ccc21 = 352
